The compounds listed here are annotated with their Bcl-B H Coefficient.
- TARGET: UniProt Q9HD36
- Sequence (Q9HD36 1-182 limits assumed): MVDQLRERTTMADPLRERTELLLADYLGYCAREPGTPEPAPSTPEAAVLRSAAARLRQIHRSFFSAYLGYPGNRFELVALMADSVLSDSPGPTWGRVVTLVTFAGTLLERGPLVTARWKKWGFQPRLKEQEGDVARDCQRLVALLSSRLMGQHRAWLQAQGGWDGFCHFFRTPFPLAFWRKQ
- RUN_DESCRIPTION: Bcl-B/FITC-TR3-r8 fluorescence polarization competition (displacement) assay, HTS and dose-response
- MEASUREMENT_PARAMETERS: Hill coefficient of Bcl-B dose-response curve

COMPOUND: O=C(O)c1cccc(-c2ccc(/C=N/Nc3ccc([N+](=O)[O-])cn3)o2)c1 [Compound 5908920]
Bcl-B H Coefficient: 0.6738
//
COMPOUND: Oc1cccc(/C=N/C2=C(c3ccco3)N=C3C=CC=CC32)c1 (stereo not drawn) [Compound 5612880]
Bcl-B H Coefficient: 0.5836
//
COMPOUND: O=C(O)c1cccc2c1NC(c1ccc([N+](=O)[O-])cc1)C1CC=CC21 (stereo not drawn) [Compound 5585430]
Bcl-B H Coefficient: 1.735
//
COMPOUND: O=C(O)c1ccc([N+](=O)[O-])c2c1NC(c1ccccc1)C1CC=CC21 (stereo not drawn) [Compound 5853021]
Bcl-B H Coefficient: 2.481
//
COMPOUND: CC(=O)c1cc(C#N)c(SCC(=O)c2ccc(O)c(O)c2)nc1C [Compound 6033363]
Bcl-B H Coefficient: 2.08
//
COMPOUND: O=C(O)C1C2CC=CC2c2cc(Oc3ccccc3)cc3c2N1CC1CC=CC31 (stereo not drawn) [Compound 5840196]
Bcl-B H Coefficient: 2.774
//
COMPOUND: Nc1n[nH]c2ncc3cc4ccccc4nc3c12 [Compound 6051011]
Bcl-B H Coefficient: 2.36
//
COMPOUND: Nc1ccc(Oc2ccc(N)c(N)c2)cc1N [Compound 5152592]
Bcl-B H Coefficient: 1.303
//
COMPOUND: O=C1C(=Cc2cn(Cc3ccc(Cl)cc3)c3ccccc23)C(=O)c2ccccc21 [Compound 5603089]
Bcl-B H Coefficient: 1.917
//
COMPOUND: Cn1c(=O)cc2c3c(c(Nc4ccc(C=O)cc4)ccc31)C(=O)c1ccccc1-2 [Compound 5719776]
Bcl-B H Coefficient: 2.489
//
COMPOUND: O=C(O)c1cccc2c1NC(c1cccc(Cl)c1Cl)C1CC=CC21 (stereo not drawn) [Compound 6048905]
Bcl-B H Coefficient: 2.809
//
COMPOUND: C=CCN1C(=O)NC(=O)/C(=C/c2cccn2-c2cccc([N+](=O)[O-])c2)C1=O [Compound 5987504]
Bcl-B H Coefficient: 1.773
//
COMPOUND: Cc1ccc(C)n1-c1ccccc1C(=O)O [Compound 5959185]
Bcl-B H Coefficient: 2.868
//
COMPOUND: Cc1cc(I)c2c(c1)C1C=CCC1C(C(=O)O)N2 (stereo not drawn) [Compound 6048134]
Bcl-B H Coefficient: 1.406
//
COMPOUND: O=C(COc1ccc(Cl)cc1Cl)Nc1nnc(-c2ccco2)[nH]1 [Compound 5632817]
Bcl-B H Coefficient: 0.9962
//
COMPOUND: Cc1ccc(C)n1-c1ccc(OCC(=O)O)cc1 [Compound 5988031]
Bcl-B H Coefficient: 0.6411
//
COMPOUND: Cc1ccc(C)n1-c1ccc(Cl)cc1C(=O)O [Compound 5950160]
Bcl-B H Coefficient: 0.9279
//
COMPOUND: O=C(O)C1Nc2c(Cl)cc(Cl)cc2C2C=CCC12 (stereo not drawn) [Compound 5736518]
Bcl-B H Coefficient: 1.13
//
COMPOUND: CN1CCN(CN2C(=O)/C(=N\NC(=O)CSc3nc4ccccc4s3)c3ccccc32)CC1 [Compound 6062681]
Bcl-B H Coefficient: 2.531
//
COMPOUND: Cc1c(Cl)ccc2c1NC(C(=O)O)C1CC=CC21 (stereo not drawn) [Compound 5659221]
Bcl-B H Coefficient: 0.6773
//
COMPOUND: O=C1C=CC2=C3Oc4c(ccc5cc(O)ccc45)C(c4ccccc4C(=O)O)C3C=CC2=C1 (stereo not drawn) [Compound 5466725]
Bcl-B H Coefficient: 3.03
//
COMPOUND: COc1ccc(Nc2ccc(N)cc2)cc1 [Compound 5529774]
Bcl-B H Coefficient: 2.718
//
COMPOUND: O=C(O)c1ccc2c(c1)C1C=CCC1C(c1cccc([N+](=O)[O-])c1)N2 (stereo not drawn) [Compound 5475298]
Bcl-B H Coefficient: 1.336
//
COMPOUND: COc1ccccc1NC(=O)C1=C(C)NC(SCC(=O)c2ccc(Br)cc2)=C(C#N)C1c1ccco1 (stereo not drawn) [Compound 5570547]
Bcl-B H Coefficient: 18.57
//
COMPOUND: Cc1ccc2oc3cc(NCCCN(C)C)c4c(=O)c5ccccc5c(=O)c4c3[nH]c2c1 [Compound 5468863]
Bcl-B H Coefficient: 1.907
//
COMPOUND: Cc1cc(C)nc(NC(=N)Nc2cccc(N)c2)n1 [Compound 5804000]
Bcl-B H Coefficient: 1.599
//
COMPOUND: Clc1ccc(C2C=C(c3ccccc3)Nc3ncnn32)cc1 (stereo not drawn) [Compound 5223675]
Bcl-B H Coefficient: 0.939
//
COMPOUND: O=C1NN(c2ccc(F)c(Cl)c2)C(=O)/C1=C\c1ccco1 [Compound 5837788]
Bcl-B H Coefficient: 1.772
//
COMPOUND: C(=N\c1ccc(/N=C/c2ccccn2)cc1)/c1ccccc1 [Compound 5491977]
Bcl-B H Coefficient: 1.819
//
COMPOUND: O=S(=O)(O)c1cccc2cccc(Nc3ccccc3)c12 [Compound 5255876]
Bcl-B H Coefficient: 2.628
//
COMPOUND: COC(=O)C1=C(C)N(C)C(=O)NC1c1cc2c(cc1[N+](=O)[O-])OCO2 (stereo not drawn) [Compound 5607960]
Bcl-B H Coefficient: 1.821
//
COMPOUND: Nc1ccc(S(=O)(=O)O)c2cccc(O)c12 [Compound 5265894]
Bcl-B H Coefficient: 2.075
//
COMPOUND: OC1=c2ccccc2=C(O)C12N=Nc1nnc(O)n1N2 [Compound 5627952]
Bcl-B H Coefficient: 0.9192
//
COMPOUND: Cc1ccc(-c2cc(C(=O)O)c3cc(Br)ccc3n2)o1 [Compound 6131498]
Bcl-B H Coefficient: 1.896
//
COMPOUND: Oc1ccc(Nc2nc(-c3ccccn3)cs2)cc1 [Compound 5662807]
Bcl-B H Coefficient: 1.182
//
COMPOUND: CN(C)c1ccc(NC(=O)/C=C\C(=O)O)cc1 [Compound 5374579]
Bcl-B H Coefficient: 2.167
